Tested on: KIT (human), P10721 [D816V]
Sequence (P10721 whole entry D816V, looked up): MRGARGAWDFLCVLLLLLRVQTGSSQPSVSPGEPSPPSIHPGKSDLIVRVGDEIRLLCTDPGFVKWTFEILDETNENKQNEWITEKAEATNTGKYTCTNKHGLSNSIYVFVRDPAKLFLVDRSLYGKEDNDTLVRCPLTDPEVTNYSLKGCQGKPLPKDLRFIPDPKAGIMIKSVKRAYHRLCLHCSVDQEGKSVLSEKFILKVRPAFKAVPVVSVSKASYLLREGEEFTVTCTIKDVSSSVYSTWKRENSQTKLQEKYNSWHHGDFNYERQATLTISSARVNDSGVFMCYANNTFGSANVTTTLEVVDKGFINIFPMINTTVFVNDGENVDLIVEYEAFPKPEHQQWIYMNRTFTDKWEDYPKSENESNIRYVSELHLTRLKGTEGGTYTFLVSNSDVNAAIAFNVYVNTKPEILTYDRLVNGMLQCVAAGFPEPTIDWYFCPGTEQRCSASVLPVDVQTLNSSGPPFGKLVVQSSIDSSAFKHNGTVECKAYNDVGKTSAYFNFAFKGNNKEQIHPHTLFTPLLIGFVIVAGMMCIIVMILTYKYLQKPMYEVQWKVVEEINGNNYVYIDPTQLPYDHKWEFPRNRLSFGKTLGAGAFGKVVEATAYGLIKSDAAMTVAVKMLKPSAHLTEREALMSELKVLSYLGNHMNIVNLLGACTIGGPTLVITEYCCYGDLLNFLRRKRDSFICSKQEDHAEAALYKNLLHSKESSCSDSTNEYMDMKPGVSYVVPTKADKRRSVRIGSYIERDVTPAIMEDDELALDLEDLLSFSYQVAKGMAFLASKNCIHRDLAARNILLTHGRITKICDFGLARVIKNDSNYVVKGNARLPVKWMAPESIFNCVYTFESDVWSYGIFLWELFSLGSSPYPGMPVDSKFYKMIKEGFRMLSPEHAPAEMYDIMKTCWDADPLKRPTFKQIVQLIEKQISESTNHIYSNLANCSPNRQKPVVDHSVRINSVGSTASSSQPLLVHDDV
protocol: KINOMEscan competition binding
cond: compound 10.0 µM
property: kinase still bound, per cent of control (%)
State just the number; it will be interpreted in %.

Use these answered entries as a reference point.
[[record]]
smiles_entry = "Cc1cnc(-c2cnc(NCCNc3ccc(C#N)cn3)nc2-c2ccc(Cl)cc2Cl)[nH]1"
endpoint_value = 100

[[record]]
smiles_entry = "Cn1cc(C2=C(c3ccc(Cl)cc3Cl)C(=O)NC2=O)c2ccccc21"
endpoint_value = 89

[[record]]
smiles_entry = "O=C1Nc2cc(Br)ccc2/C1=C1/Nc2ccccc2/C1=N\\O"
endpoint_value = 2.3


Next item in the queue.
Query block: What value of kinase still bound, per cent of control has been reported for the following compound? COc1ccc(CNC(=O)Nc2ncc([N+](=O)[O-])s2)cc1
Result block: 100

----------
In this section, each of the compounds is paired with its reported kinase still bound, per cent of control.
target: MARK2 (human) (UniProt Q7KZI7)
Sequence (Q7KZI7 whole entry, looked up): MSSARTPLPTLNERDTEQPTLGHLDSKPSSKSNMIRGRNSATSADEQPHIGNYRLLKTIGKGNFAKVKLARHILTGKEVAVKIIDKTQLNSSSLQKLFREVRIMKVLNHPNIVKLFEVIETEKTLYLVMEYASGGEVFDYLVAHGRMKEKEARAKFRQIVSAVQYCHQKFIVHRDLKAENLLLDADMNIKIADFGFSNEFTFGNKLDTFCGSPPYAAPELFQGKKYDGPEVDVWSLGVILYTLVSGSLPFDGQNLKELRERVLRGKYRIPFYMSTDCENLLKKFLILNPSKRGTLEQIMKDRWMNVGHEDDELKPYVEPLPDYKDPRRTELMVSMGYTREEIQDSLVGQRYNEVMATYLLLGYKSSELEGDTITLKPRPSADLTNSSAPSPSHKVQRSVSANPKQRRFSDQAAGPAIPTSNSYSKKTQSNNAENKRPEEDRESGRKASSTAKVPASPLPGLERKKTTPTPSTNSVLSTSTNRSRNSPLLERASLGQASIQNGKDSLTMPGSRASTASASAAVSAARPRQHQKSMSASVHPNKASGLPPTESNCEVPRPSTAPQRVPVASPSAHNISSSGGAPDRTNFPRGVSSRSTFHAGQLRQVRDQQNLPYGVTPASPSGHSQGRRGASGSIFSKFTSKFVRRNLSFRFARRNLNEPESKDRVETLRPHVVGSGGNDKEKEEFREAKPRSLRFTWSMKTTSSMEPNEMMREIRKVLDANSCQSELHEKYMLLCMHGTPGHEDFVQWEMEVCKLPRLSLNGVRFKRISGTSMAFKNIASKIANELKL
protocol: KINOMEscan competition binding
cond: compound 10.0 µM
Please report the result as a number followed by the unit.

Use these answered entries as a reference point.
[[record]]
smiles_entry = "COc1ccc(CNC(=O)Nc2ncc([N+](=O)[O-])s2)cc1"
property = "kinase still bound, per cent of control"
endpoint_value = "100%"

[[record]]
smiles_entry = "Cn1cc(C2=C(c3ccc(Cl)cc3Cl)C(=O)NC2=O)c2ccccc21"
property = "kinase still bound, per cent of control"
endpoint_value = "78%"

[[record]]
smiles_entry = "Cc1cnc(-c2cnc(NCCNc3ccc(C#N)cn3)nc2-c2ccc(Cl)cc2Cl)[nH]1"
property = "kinase still bound, per cent of control"
endpoint_value = "100%"


Next item in the queue.
Query block: What value of kinase still bound, per cent of control has been reported for the following compound? O=C1Nc2cc(Br)ccc2/C1=C1/Nc2ccccc2/C1=N\O
Result block: 19%

----------
In this section, each of the molecules is paired with its reported kinase still bound, per cent of control.
target: NEK5 (human) (UniProt Q6P3R8)
Sequence (Q6P3R8 whole entry, looked up): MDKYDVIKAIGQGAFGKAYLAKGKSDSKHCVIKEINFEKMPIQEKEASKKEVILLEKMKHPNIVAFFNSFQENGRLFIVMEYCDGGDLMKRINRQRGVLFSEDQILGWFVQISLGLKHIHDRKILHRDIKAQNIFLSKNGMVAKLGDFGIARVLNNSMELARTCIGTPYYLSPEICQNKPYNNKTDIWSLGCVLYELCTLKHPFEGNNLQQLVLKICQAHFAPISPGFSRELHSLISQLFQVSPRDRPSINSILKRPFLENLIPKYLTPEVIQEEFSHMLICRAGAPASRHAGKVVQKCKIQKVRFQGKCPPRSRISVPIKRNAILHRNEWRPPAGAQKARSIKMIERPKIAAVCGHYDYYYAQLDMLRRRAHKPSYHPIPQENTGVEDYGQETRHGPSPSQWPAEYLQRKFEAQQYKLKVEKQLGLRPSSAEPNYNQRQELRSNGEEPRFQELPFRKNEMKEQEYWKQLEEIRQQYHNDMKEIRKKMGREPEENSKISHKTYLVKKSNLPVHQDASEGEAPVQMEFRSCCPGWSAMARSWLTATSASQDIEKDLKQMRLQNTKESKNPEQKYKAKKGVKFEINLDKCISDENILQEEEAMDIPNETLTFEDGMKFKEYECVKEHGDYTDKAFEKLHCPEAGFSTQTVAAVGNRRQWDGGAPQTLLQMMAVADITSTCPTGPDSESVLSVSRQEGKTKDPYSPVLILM
protocol: KINOMEscan competition binding
cond: compound 10.0 µM
State just the number; it will be interpreted in %.

Use these answered entries as a reference point.
[[record]]
smiles_entry = "O=C1Nc2cc(Br)ccc2/C1=C1/Nc2ccccc2/C1=N\\O"
units_of_measure = "%"
endpoint_value = 80

[[record]]
smiles_entry = "COc1ccc(CNC(=O)Nc2ncc([N+](=O)[O-])s2)cc1"
units_of_measure = "%"
endpoint_value = 100

[[record]]
smiles_entry = "Cn1cc(C2=C(c3ccc(Cl)cc3Cl)C(=O)NC2=O)c2ccccc21"
units_of_measure = "%"
endpoint_value = 99


Next item in the queue.
Query block: Test system NEK5 (human) (UniProt Q6P3R8); read-out kinase still bound, per cent of control; what value for Cc1cnc(-c2cnc(NCCNc3ccc(C#N)cn3)nc2-c2ccc(Cl)cc2Cl)[nH]1 ?
Result block: 93

----------
In this section, each of the molecules is paired with its reported kinase still bound, per cent of control.
Tested on: MET (human), P08581 [Y1235D]
protocol: KINOMEscan competition binding
cond: compound 10.0 µM
State just the number; it will be interpreted in %.

[[record]]
smiles_entry = "Cc1cnc(-c2cnc(NCCNc3ccc(C#N)cn3)nc2-c2ccc(Cl)cc2Cl)[nH]1"
property = "kinase still bound, per cent of control"
endpoint_value = 100

[[record]]
smiles_entry = "Cn1cc(C2=C(c3ccc(Cl)cc3Cl)C(=O)NC2=O)c2ccccc21"
property = "kinase still bound, per cent of control"
endpoint_value = 85

[[record]]
smiles_entry = "COc1ccc(CNC(=O)Nc2ncc([N+](=O)[O-])s2)cc1"
property = "kinase still bound, per cent of control"
endpoint_value = 96


Query block: What value of kinase still bound, per cent of control has been reported for the following molecule? O=C1Nc2cc(Br)ccc2/C1=C1/Nc2ccccc2/C1=N\O
Result block: 100
